Assay: Liver Microsome Stability Assay (human)
Conditions: human liver microsomes, with NADPH, 1.0 uM compound
Would you kindly list Liver Microsome Stability (Multiple Species): Human - % Remaining after 30 min w/NADPH for each of these compounds?
Answer with a number only, understood to be in %.

Liver Microsome Stability (Multiple Species): Human - % Remaining after 30 min w/NADPH for O=C(Nc1nc([C@H]2CCCN2c2ccc(CO)cc2)cs1)c1cccn1Cc1ccnc(F)c1 ?
0.61

Liver Microsome Stability (Multiple Species): Human - % Remaining after 30 min w/NADPH for CC1CCc2c(/C=C/c3csc(NC(=O)c4cccn4Cc4ccnc(F)c4)n3)ncn2C1 (stereo not shown) ?
0.2

Liver Microsome Stability (Multiple Species): Human - % Remaining after 30 min w/NADPH for CCc1ccc(N2CCC[C@@H]2c2csc(NC(=O)c3cccn3Cc3ccnc(F)c3)n2)cc1 ?
72.8

Liver Microsome Stability (Multiple Species): Human - % Remaining after 30 min w/NADPH for Cc1cnc(/C=C/c2csc(NC(=O)c3cccn3Cc3ccncc3)n2)o1 ?
2.88

Liver Microsome Stability (Multiple Species): Human - % Remaining after 30 min w/NADPH for C#CCCCCn1cccc1C(=O)Nc1nc([C@H]2CCCN2c2ccccc2)cs1 ?
39.8

Liver Microsome Stability (Multiple Species): Human - % Remaining after 30 min w/NADPH for O=C(Nc1nc([C@H]2CCCN2c2ccccc2)cs1)c1cccn1Cc1cc(F)nc(F)c1 ?
13.7

Liver Microsome Stability (Multiple Species): Human - % Remaining after 30 min w/NADPH for O=C1CCCC(/C=C/c2csc(NC(=O)c3cccn3Cc3ccncc3)n2)N1 (stereo not shown) ?
0.48
